Source: paper PMC5063714

- measurementTarget: T1, chromodomain of CBX4 (human, UniProt O00257-1 8-65)
- T1 sequence (looked up): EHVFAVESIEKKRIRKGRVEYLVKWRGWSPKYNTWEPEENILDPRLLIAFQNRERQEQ
- protocolText: AlphaScreen or HTRF
Ends that are not written are not given here. diethyl = not defined here
measuredParameter: pIC50
Answer as the number alone; pIC50 is minus log10 of concentration in mol/L.

Guide cases for pIC50, answers given:
binder: {4‑tBu‑Bz}-F(CH2NH2)ALK(diethyl)S-OMe (reading uncertain) [compound 47]
pIC50: 6.77
--
binder: {4‑tBu‑Bz}-FALK(diethyl)S (reading uncertain; also: C-terminal carbonyl removed entirely (R3 = -H)) [compound 46]
pIC50: 6.70
--
binder: {4‑tBu‑Bz}-F(CH2NHBoc)ALK(diethyl)S-OMe (reading uncertain) [compound 48]
pIC50: 7.01
--
binder: {4‑tBu‑Bz}-FALK(diethyl)S-OH (reading uncertain) [compound 44]
pIC50: 6.62
--
binder: {4‑tBu‑Bz}-FALK(diethyl)S-NMe2 (reading uncertain) [compound 45]
pIC50: 6.85

Problem: What value of pIC50 has been recorded for this entry: {4‑tBu‑Bz}-FVLK(diethyl)S-OMe (reading uncertain) [compound 43]
Result: 5.10
